assay.overview: elog D7.4 by chromatographic (HPLC) method
Type: physicochemical
experimental.context: Polaris C18-A column, pH 7.4, read-out: elog D7.4 (experimental distribution coefficient at pH 7.4)
metric.name: chromatographic logD

[[record]]
compound = "CC(=O)c1c(C)c2cnc(Nc3ccc(N4CCN(C(=O)CCCCCOCCCCOCCCCOCCCCOCCCCCCNc5cccc6c5C(=O)N(C5CCC(=O)NC5=O)C6=O)CC4)cn3)nc2n(C2CCCC2)c1=O (centres unmarked)"
metric_name = "chromatographic logD"
recorded_value = 5.4

[[record]]
compound = "CC(=O)c1c(C)c2cnc(Nc3ccc(N4CCN(CCOCCOCC(=O)N[C@H](C(=O)N5C[C@H](O)C[C@H]5C(=O)NCc5ccc(-c6scnc6C)cc5)C(C)(C)C)CC4)cn3)nc2n(C2CCCC2)c1=O"
metric_name = "chromatographic logD"
recorded_value = 2.7

[[record]]
compound = "CC(=O)c1c(C)c2cnc(Nc3ccc(N4CCN(CCOCCOCCOc5cc(-c6scnc6C)ccc5CNC(=O)[C@@H]5C[C@@H](O)CN5C(=O)[C@@H](NC(=O)C5(F)CC5)C(C)(C)C)CC4)cn3)nc2n(C2CCCC2)c1=O"
metric_name = "chromatographic logD"
recorded_value = 3.1

[[record]]
compound = "CC(=O)c1c(C)c2cnc(Nc3ccc(N4CCN(CCOCCOCCOCC(=O)N[C@H](C(=O)N5C[C@H](O)C[C@H]5C(=O)NCc5ccc(-c6scnc6C)cc5)C(C)(C)C)CC4)cn3)nc2n(C2CCCC2)c1=O"
metric_name = "chromatographic logD"
recorded_value = 3.5

[[record]]
compound = "CC(=O)c1c(C)c2cnc(Nc3ccc(N4CCN(C(=O)COCCOCCNc5cccc6c5C(=O)N(C5CCC(=O)NC5=O)C6=O)CC4)cn3)nc2n(C2CCCC2)c1=O (centres unmarked)"
metric_name = "chromatographic logD"
recorded_value = 2.8

[[record]]
compound = "CC(=O)c1c(C)c2cnc(Nc3ccc(N4CCN(CCCCCCOCCCCCOCCCCC(=O)N[C@H](C(=O)N5C[C@H](O)C[C@H]5C(=O)NCc5ccc(-c6scnc6C)cc5)C(C)(C)C)CC4)cn3)nc2n(C2CCCC2)c1=O"
metric_name = "chromatographic logD"
recorded_value = 4.8

[[record]]
compound = "CC(=O)c1c(C)c2cnc(Nc3ccc(N4CCN(C(=O)CCCCCOCCCCOCCCCOCCCCNc5cccc6c5C(=O)N(C5CCC(=O)NC5=O)C6=O)CC4)cn3)nc2n(C2CCCC2)c1=O (centres unmarked)"
metric_name = "chromatographic logD"
recorded_value = 4.4

[[record]]
compound = "CC(=O)c1c(C)c2cnc(Nc3ccc(N4CCN(C(=O)COCCOCCOCCNc5cccc6c5C(=O)N(C5CCC(=O)NC5=O)C6=O)CC4)cn3)nc2n(C2CCCC2)c1=O (centres unmarked)"
metric_name = "chromatographic logD"
recorded_value = 2.8

[[record]]
compound = "CN[C@H](C)C(=O)N[C@H](C(=O)N1C[C@@H](Oc2cccc(OCCOCCOCCOCCN3CCN(c4ccc(Nc5ncc6c(C)c(C(C)=O)c(=O)n(C7CCCC7)c6n5)nc4)CC3)c2)C[C@H]1C(=O)N[C@@H]1CCCc2ccccc21)C1CCCCC1"
metric_name = "chromatographic logD"
recorded_value = 4.5

[[record]]
compound = "CC(=O)c1c(C)c2cnc(Nc3ccc(N4CCN(CCOCCOCCOc5cc(-c6scnc6C)ccc5CNC(=O)[C@@H]5C[C@H](O)CN5C(=O)[C@H](C(C)C)N5Cc6ccccc6C5=O)CC4)cn3)nc2n(C2CCCC2)c1=O"
metric_name = "chromatographic logD"
recorded_value = 3

[[record]]
compound = "CC(=O)c1c(C)c2cnc(Nc3ccc(N4CCN(CCOCCOCCOc5cc(-c6scnc6C)ccc5CNC(=O)[C@@H]5C[C@@H](O)CN5C(=O)[C@@H](NC(=O)C5(C#N)CC5)C(C)(C)C)CC4)cn3)nc2n(C2CCCC2)c1=O"
metric_name = "chromatographic logD"
recorded_value = 3


meta.source: paper PMC7552917
